Reference for the values: the array DNA melting data of Ke et al. (doi:10.1101/2024.01.08.574731)

Experiment: folding enthalpy; higher = less favourable; fluorescence melt of hairpins on a sequencing array, two-state fit
Settings: sodium 0.088 M
OBSERVATION_TYPE: folding enthalpy (kcal/mol)
The answer is to be given in kcal/mol; state only the numeric part.

SEQ: GTATCGAAAGATAC (((((....)))))
MEASUREMENT_UNITS: kcal/mol
folding enthalpy: -25.1

So, GATCCCGCAGGGGATC ((((((....)))))) ? Its folding enthalpy was -15.7

So, GCCTACGGAAACATAGGC (((((.(....).))))) ? Its folding enthalpy was -28.9

So, GTCTACGAAAGTACAGAC ((((((....)))..))) ? Its folding enthalpy was -18.1

So, GCACAAGGAAACCTGTGC (((((.(....).))))) ? Its folding enthalpy was -34

So, GATCTAGCCTTAGATC ((((((....)))))) ? Its folding enthalpy was -38.6

----------
Experiment: folding enthalpy; higher = less favourable; fluorescence melt of hairpins on a sequencing array, two-state fit
Conditions: sodium 0.088 M
Label rule met for high-side folding enthalpy (at or above -30 kcal/mol) and rule not met for low-side folding enthalpy (below it).

Consider the following illustrative entries.
SEQ: GAGAGCGAAAGCTACCTC ((((((....)))..)))
CAT: rule met

SEQ: GATCGAGACCTCGATC ((((((....))))))
CAT: rule not met

SEQ: GCTGCGGGAAACCGTGGC ((..(((....)))..))
CAT: rule not met

SEQ: GGCATGCGAAAGCAAGCC (((.(((....))).)))
CAT: rule met

Asked: // inclusive: folding enthalpy at least -30 kcal/mol? input: GTGGCTGGAAACGGCCAC (((((.(....).)))))
Given back: rule not met

Asked: // inclusive: folding enthalpy at least -30 kcal/mol? input: GATCCTCTCAGGATC ((((((...))))))
Given back: rule not met

----------
Experiment: folding enthalpy; higher = less favourable; fluorescence melt of hairpins on a sequencing array, two-state fit
Conditions: sodium 0.088 M
Measured folding enthalpy accompanies every entry in the list below.
The answer is to be given in kcal/mol; state only the numeric part.

Consider the reported folding enthalpy for these sequences:
SEQ: CGTGAGCGGAAACGCACG (((..(((....))))))
MEASUREMENT_UNITS: kcal/mol
RESULT: -22.2
--
SEQ: GCAGCCGGAAACGACTGC ((((.((....)).))))
MEASUREMENT_UNITS: kcal/mol
RESULT: -43.5
--
SEQ: GTGGCTGGAAACGGTCAC (((.(.(....).).)))
MEASUREMENT_UNITS: kcal/mol
RESULT: -30.7
--
SEQ: GTTACCCGAAAGGGCAAC (((.(((....))).)))
MEASUREMENT_UNITS: kcal/mol
RESULT: -24.4
--
SEQ: CTGATGAAAATCAG (((((....)))))
MEASUREMENT_UNITS: kcal/mol
RESULT: -22

Note: attention shifts to another entry.
So, GATCTATACCTAGATC ((((((....)))))) ? Its folding enthalpy was -34.7

----------
Assay: folding enthalpy; higher = less favourable; fluorescence melt of hairpins on a sequencing array, two-state fit
Settings: sodium 0.088 M
Measured folding enthalpy accompanies every entry in the list below.
Reply with the number and its unit after it.

Consider the reported folding enthalpy for these sequences:
SEQ: GGATCAGAAATGATCC ((((((....))))))
RESULT: -36 kcal/mol
--
SEQ: GATCGGTAGACCGATC ((((((....))))))
RESULT: -41.1 kcal/mol
--
SEQ: GGTTCACGAAAGTGCACC (((.(((....))).)))
RESULT: -29.7 kcal/mol
--
SEQ: GGCCGAGGAAACTCGACC ((.((((....)))).))
RESULT: -35 kcal/mol
--
SEQ: GCGTAGGAACGC ((((....))))
RESULT: -16.3 kcal/mol

So, CGACCGGAAACGGACTCG ((((((....)))..))) ? Its folding enthalpy was -12.9 kcal/mol

So, GGTTTGGGAAACCAAGTC (..((((....))))..) ? Its folding enthalpy was -15.4 kcal/mol

So, GGCTGCCGAAAGGCCGCC (((.(((....))).))) ? Its folding enthalpy was -18.5 kcal/mol

So, GTGTCCGGAAACGGGTAC ((..(((....)))..)) ? Its folding enthalpy was -20 kcal/mol

So, GATCCTAAACAGGATC ((((((....)))))) ? Its folding enthalpy was -31.5 kcal/mol

So, GATCAACGGGTTGATC ((((((....)))))) ? Its folding enthalpy was -36.7 kcal/mol

So, GCCGGCGAAAGCCGCGGC ((((((....)))..))) ? Its folding enthalpy was -11.9 kcal/mol

So, GTATTGGAAACAATAC ((((((....)))))) ? Its folding enthalpy was -26.9 kcal/mol

So, GCGATGGGAAACCATTGC ((.((((....)))).)) ? Its folding enthalpy was -49.3 kcal/mol

So, GCAAATGGAAACATTTGC (((((((....))))))) ? Its folding enthalpy was -40.9 kcal/mol

So, GCCTGGTCGAAAGACGGC (((..(((....)))))) ? Its folding enthalpy was -25.3 kcal/mol

So, GCCGAAGCGAAAGCTGGC (((..(((....)))))) ? Its folding enthalpy was -31.6 kcal/mol

So, GGTCCTGGAAACAAGACC ((((.((....)).)))) ? Its folding enthalpy was -32.1 kcal/mol

So, GGAAACCGAAAGGTCTCC (((.(((....))).))) ? Its folding enthalpy was -27.5 kcal/mol

So, GTAGCTGGAAACAGTTAC (((.(((....))).))) ? Its folding enthalpy was -32.8 kcal/mol

So, GCGTATTCACGC ((((....)))) ? Its folding enthalpy was -25.6 kcal/mol

So, GTTGGTGGAAACATCAGC (.((.((....)).)).) ? Its folding enthalpy was -18.8 kcal/mol

So, CGCGGAAAAACAACAACAACCGCG ((....................)) ? Its folding enthalpy was -29.6 kcal/mol

So, GATCAAAACATTGATC ((((((....)))))) ? Its folding enthalpy was -31.7 kcal/mol

So, GATCGTTCACACGATC ((((((....)))))) ? Its folding enthalpy was -40.3 kcal/mol

So, GGCGATTCGAAAGAAGCC (((..(((....)))))) ? Its folding enthalpy was -23.2 kcal/mol

----------
Measured folding enthalpy accompanies every entry in the list below.
Assay: folding enthalpy; higher = less favourable; fluorescence melt of hairpins on a sequencing array, two-state fit
Conditions: sodium 0.088 M
The answer is to be given in kcal/mol; state only the numeric part.

Consider the reported folding enthalpy for these sequences:
SEQ: GTAGCAGGAAACTGCCAC ((.((((....)))).))
folding enthalpy / kcal/mol: -14.3

SEQ: CGTGCGGAAACGCCGACG ((((((....)))..)))
folding enthalpy / kcal/mol: -15.6

SEQ: CGGGCGGAAACGCAGCCG ((((((....)))..)))
folding enthalpy / kcal/mol: -19.5

SEQ: GTGCGAGCGAAAGCTCAC (((..(((....))))))
folding enthalpy / kcal/mol: -12.2

SEQ: GTTACCGAAAGGTATAAC ((((((....)))..)))
folding enthalpy / kcal/mol: -11.7

So, GAGATCCGAAAGGACCTC (((.(((....))).))) ? Its folding enthalpy was -28.4

----------
Assay: melting temperature; fluorescence melt of hairpins on a sequencing array, two-state fit, raised by 9.35 °C to match UV melts
Conditions: sodium 0.088 M
The recorded Tm of each item maps onto one of these classes: zone 1 = under 40 °C, zone 2 = from 40 °C up to 60 °C, zone 3 = 60 °C and over

SEQ: GAGTTCGGAAACGAACCC (.(((((....))))).)
CAT: zone 2

SEQ: TATGTGAAAACATA (((((....)))))
CAT: zone 1

SEQ: GTGACCACGAAAGTGCAC (((..(((....))))))
CAT: zone 1

SEQ: GTTTGCGAAAGCATGAAC ((((((....)))..)))
CAT: zone 1

SEQ: GCCTCGCGAAAGCTTGGC (((..((....))..)))
CAT: zone 2

SEQ: GATCGAACTCTCGATC ((((((....))))))
CAT: zone 2

--- query ---
Asked: Any idea which band GCGGCTCGAAAGAGCGC (((.(((....)))))) is in?
Given back: zone 3
